Measured melting point values are reported for all entries that follow.

Cn1ccc2ccc(NC(=O)/C=C/c3ccc(C(C)(C)C)cc3)cc21 ... 95 °C

// below: melting point requested for another molecule
Prompt line: Given CCOC(=O)CCc1cn(Cc2ccc(OCc3csc(-c4ccccn4)n3)cc2)cc1-c1ccccc1 , state its recorded melting point.
Response line: 81 to 82 °C

====

MEASURE NAME: melting point

In the examples that follow, each entry is paired with its recorded melting point.
Cc1csc(-c2cc(=O)n(C)c3ccc(C(O)(c4ccc(Cl)cc4)c4cncn4C)cc23)n1 (stereo unspecified) ... 200 °C
Sc1nc2cc3c(cc2[nH]1)COCO3 ... 288 to 289 °C
CC(=O)COc1ccc(N2N=C3c4cc(F)ccc4CCC3CC2=O)cc1 (stereo unspecified) ... 195 to 196 °C
CCOC(=O)c1ccc(CCN2CC=C(c3c[nH]c(-c4ccc(F)cc4)c3-c3ccncc3)CC2)cc1 ... 217 to 218 °C
COc1cc(OC)c2c(=O)[nH]c(-c3cc(C)c(OCCN4CCOCC4)c(C)c3)cc2c1 ... 196 to 198 °C
Nc1ccc(NC(=O)CC(=O)c2ccccc2)cc1[N+](=O)[O-] ... 182 to 183 °C
Clc1cccc(Nc2ncnc3[nH]nc(NCc4cccnc4)c23)c1 ... 204 to 206 °C
CCc1nc2c(cnn2CC)c(NC2CCOCC2)c1CNC(=O)c1cccc(C(=O)NCc2cc(Cl)cc(-c3cccc(CN4CCNC(C)C4)c3)c2)c1 (stereo unspecified) ... 119 to 121 °C
O=C1CNCc2[nH]c3ccccc3c21 ... 220 to 233 °C
CCCCc1c2c(cc3ccc(O)cc13)-c1ccc(O)cc1CO2 ... 187 to 189 °C

Prompt line: Given CC(C)(C)c1ccc(C(=O)Nc2cn3nc(NCCO)ccc3n2)cc1 , state its recorded melting point.
Response line: 231 to 233 °C

Prompt line: Would you mind doing CSc1ncc2cc(Oc3ccc(F)cc3F)c(NS(C)(=O)=O)nc2n1 as well?
Response line: 199 to 204 °C

Prompt line: Would you mind doing CCOC(=O)C=Cc1nc(-c2ccc(=O)n(C(C)C)n2)c(-c2ccccc2)nc1N as well?
Response line: 233 to 236 °C

Prompt line: Would you mind doing CCc1cc2c(ccc(=O)n2Cc2ccc(-c3ccccc3S(N)(=O)=O)cc2)c(CC)n1 as well?
Response line: 199 to 200 °C

Prompt line: Would you mind doing N#CC(C#N)=C1N(CCCCN2CCCCC2)CCN1CCN1CCCCC1 as well?
Response line: 78 to 79 °C

Prompt line: Would you mind doing CCCCC(CC(=O)Nc1cc(C(N)=O)ccc1C(C)(C)C)c1ccc(OC)cc1OC (stereo unspecified) as well?
Response line: 186 to 188 °C

Prompt line: Would you mind doing Cc1ccc2c(c1)c1c(n2C(=O)c2ccccc2)CCCC1C(=O)O (stereo unspecified) as well?
Response line: 149 to 153 °C

Prompt line: Would you mind doing CCC1=NCC(c2cccc(O)c2)O1 (stereo unspecified) as well?
Response line: < 84 °C

Prompt line: Would you mind doing COc1ccccc1CNc1cccnc1Cl as well?
Response line: 121 to 125 °C

Prompt line: Would you mind doing CCCCCC(=O)OCn1cnc2c1c(=O)n(C)c(=O)n2C as well?
Response line: 67 to 72 °C

Prompt line: Would you mind doing CCN(CC)C(=O)C=Cc1cc([N+](=O)[O-])ccc1C as well?
Response line: 61.9 °C

Prompt line: Would you mind doing COc1cccc(CN2CCN(CC(=O)N3CC=C(c4cccc(C(F)(F)F)c4)n4cnc(C#N)c43)CC2)c1 as well?
Response line: 131 to 133 °C

Prompt line: Would you mind doing COC(=O)C(OC)(c1ccccc1)c1nc(OC)cc(OC)n1 (stereo unspecified) as well?
Response line: 72 to 76 °C

====

Measured melting point values are reported for all entries that follow.

In the examples that follow, each entry is paired with its recorded melting point.
Cc1ccc2c(c1)C=Cc1cc(C)ccc1C2c1cn(-c2ccnc(NC(Cc3c[nH]cn3)C(=O)O)n2)c(=O)[nH]c1=O (stereo unspecified) ... 223 °C
CCOc1cc(C)ccc1S(N)(=O)=O ... 136 to 137 °C
COc1ccc(Nc2ccc3cc(O)ccc3c2)cc1 ... 152 to 153 °C
COC(=O)c1ccc(S(=O)(=O)C2CCN(CCc3ccc(F)cc3F)CC2)cc1 ... 123 to 124 °C

Prompt line: Given O=C1C(=O)N(Cc2ccc(Br)cc2F)c2c(Cl)cccc21 , state its recorded melting point.
Response line: 164 to 166 °C

====

Measured melting point values are reported for all entries that follow.

Prompt line: Given CC(Oc1ccc(F)cc1F)(C(=O)Nc1nc(CC(=O)O)c(Cl)s1)c1ccc(S(C)(=O)=O)cc1 (stereo not given) , state its recorded melting point.
Response line: 109 to 111 °C

Prompt line: Would you mind doing CC1CSC2=CC=NC3=CC=CC(c4ccccc4)C321 (stereo not given) as well?
Response line: 164 °C

====

Measured melting point values are reported for all entries that follow.

In the examples that follow, each entry is paired with its recorded melting point.
O=C(C=Cc1ccccc1)Nc1ccccc1NC(=O)C=Cc1ccccc1 ... 212 °C
O=C1NC(Cc2ccccc2)=C2OCOCOC2C(Cc2ccccc2)N1 (stereo not given) ... 125 to 130 °C
Cc1ccc(S(=O)(=O)N(c2ccc(Cl)cc2C(N)=O)C(C)C)cc1 ... 177 to 178 °C
Fc1cc(Nc2ccc(Oc3ccccc3)cc2)ccn1 ... 149 °C
CCn1c(=O)c2[nH]c(/C=C/c3cccc(F)c3C)nc2n(CC)c1=O ... > 270 °C

Prompt line: Given Cc1n[nH]c2cc(F)ccc12 , state its recorded melting point.
Response line: 116 to 117 °C

Prompt line: Would you mind doing CS(=O)(=O)OC1Cc2ccccc2C1 as well?
Response line: 75 to 77 °C

Prompt line: Would you mind doing CCCn1cc(Cc2ccc(C(=O)NS(=O)(=O)c3ccccc3Cl)cc2OC)c2cc(CCC(C)C(=O)N(C)C)ccc21 (stereo not given) as well?
Response line: 95 to 98 °C

Prompt line: Would you mind doing CN(C)S(=O)(=O)c1cccc(NN)n1 as well?
Response line: 117 to 120 °C

Prompt line: Would you mind doing CC(=O)C(=NO)c1ccc(OC[Si](C)(C)c2ccc(F)cc2)cc1 as well?
Response line: 115 to 117 °C

====

MEASURE NAME: melting point

In the examples that follow, each entry is paired with its recorded melting point.
COCc1cn(-c2ccccc2)nc1OCc1ccc(OCc2nc(-c3ccco3)oc2C)c(OC)c1 ... 121 to 122 °C
CC(=O)Nc1c(C(=O)c2ccccc2)[nH]c2cc([N+](=O)[O-])ccc12 ... 234 to 236 °C
CCOc1ccc2nc(COc3ccc(CC4SC(=O)NC4=O)cc3)n(C)c2n1 (stereo not given) ... 245 to 246 °C

// below: melting point requested for another compound
Prompt line: Given COc1cc2c(cc1-c1ccccc1)c1cc(-c3ccccc3)c(OC)cc1n2CCC(C)CCCC(C)C (stereo not given) , state its recorded melting point.
Response line: 119 °C

====

MEASURE NAME: melting point

CC(C(=O)N1CCCC(C)(C)C1)N(C(=O)CN1C(=O)c2ccccc2C1=O)c1ccccc1 (racemic) ... 171 °C
CCCCOc1cc(C(=O)O)n(Cc2ccc(Cl)cc2Cl)n1 ... 154 to 155 °C
O=C(O)CCc1cn(Cc2ccc(OCc3ccc4ccccc4n3)cc2)nc1-c1ccc(F)cc1 ... 178 to 179 °C

Prompt line: Given Cc1cc(I)ccc1O , state its recorded melting point.
Response line: 64 to 65 °C

Prompt line: Would you mind doing O=C1CC[C@H](CC(c2ccc(S(=O)(=O)C3CC3)cc2)c2nc(F)c(C(=O)C3CCC3)[nH]2)C1 (stereo not given in full) as well?
Response line: 85 to 88 °C

Prompt line: Would you mind doing CC(C)(C)c1cc(C(=O)OCCc2ccc([N+](=O)[O-])cc2)cc(C(C)(C)C)c1O as well?
Response line: 124 °C

Prompt line: Would you mind doing O=C1CCC(N2C(=O)c3cccc(CNC(=O)Nc4ccc5ccccc5c4)c3C2=O)C(=O)N1 (stereo not given) as well?
Response line: 201 to 203 °C

====

Measured melting point values are reported for all entries that follow.

CSC(c1ccccc1)S(=O)c1ccccc1 (stereo not given) ... 104 to 105 °C
CCn1c(-c2ccc(F)cc2)c(OCCOc2ccc(C(C)=C3SC(=O)NC3=O)cc2)c(=O)c2ccccc21 ... 214 to 216 °C
CCOC(=O)C1=C(C)Nc2nc(N)nc(N3CCOCC3)c2C1c1cccc([N+](=O)[O-])c1 (stereo not given) ... 208 °C
CCCc1c(O)ccc2oc(Cc3ccc(O)cc3)c(C)c12 ... 138 to 142 °C
Cc1c(C2=CCC(Cc3ccccc3)(N(C)C)CC2)[nH]c2ccc(C#N)cc12 (stereo not given) ... 120 to 123 °C
Cc1c(C(=O)O)oc2cc(S)ccc12 ... 230 to 232 °C
CCOC(=O)c1c(OCC)ccn1C(=O)n1cccc1C(=O)O ... 58 to 60 °C
OCc1ccccc1-c1ccccc1CO ... 98 to 103 °C

Prompt line: Given CC(C)OCCOc1ccc(-c2nc(C(=O)Nc3nccs3)c(-c3ccc(Cl)cc3)[nH]2)cc1 , state its recorded melting point.
Response line: 121 to 125 °C

Prompt line: Would you mind doing CC(C)c1ccc2oc(C(O)COc3ccc(CO)cc3)cc2c1 (stereo not given) as well?
Response line: 98 to 100 °C
